# target_under_test: His-hMAGL (recombinant polyhistidine tagged human MAGL protein) (Homo sapiens)
# Construct: made in house; host or cells: E. coli BL21(DE3)
# Sequence (Q99685 1-303): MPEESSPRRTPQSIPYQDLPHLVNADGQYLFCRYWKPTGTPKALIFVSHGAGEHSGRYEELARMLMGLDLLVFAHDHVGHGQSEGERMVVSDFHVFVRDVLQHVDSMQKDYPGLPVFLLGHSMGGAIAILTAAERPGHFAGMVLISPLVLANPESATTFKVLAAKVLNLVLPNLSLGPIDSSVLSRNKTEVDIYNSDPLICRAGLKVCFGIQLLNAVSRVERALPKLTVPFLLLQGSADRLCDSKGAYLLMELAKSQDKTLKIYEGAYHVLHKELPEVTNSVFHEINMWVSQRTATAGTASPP
# test_method_notes: Measurement of MAGL inhibitory activity (arachidonic acid production from 2-arachidonylglycerol, RapidFire-mass spectrometry)
# Assay type: biochemical
# assay_conditions: MAGL inhibitory rate, test compound 10 μM, 60 min preincubation, 2-arachidonylglycerol substrate
metric_name: inhibition at 10 µM (%)

compound | inhibition at 10 µM / %
O=C1CCC2(CN(C(=O)c3ccc(-c4ccc(Cl)cc4)cc3)C2)N1 | 98
O=C1NC2(CO1)CN(C(=O)c1sc3c(Cl)c(OC(F)(F)F)ccc3c1Cl)C2 | 101
O=C1NC2(CO1)CN(C(=O)c1sc3ccc(C(F)(F)F)cc3c1Cl)C2 | 100
O=C1CCC2(CN(C(=O)c3ccc(C(F)(F)c4ccccc4)cc3)C2)N1 | 97
O=C1NC2(CO1)CN(C(=O)c1sc3cc(F)cc(OC(F)(F)F)c3c1Cl)C2 | 101
O=C1NC2(CCN(C(=O)c3sc4cc(OC(F)(F)F)ccc4c3Cl)C2)CO1 (stereo not drawn) | 100
O=C1NC2(CO1)CN(C(=O)c1sc3ccccc3c1Cl)C2 | 100
Cc1c(F)cccc1-c1ccc2c(Cl)c(C(=O)N3CC4(CCC(=O)N4)C3)sc2c1 | 100
Cc1ccc(-c2ccc3c(Cl)c(C(=O)N4CC5(CCC(=O)N5)C4)sc3c2)cc1F | 96
COc1ccccc1-c1ccc2c(Cl)c(C(=O)N3CC4(CCC(=O)N4)C3)sc2c1 | 100
O=C1CCC2(CN(C(=O)c3ccc(-c4ccc(C5(C(F)(F)F)CC5)cc4)cc3)C2)N1 | 99
O=C1CCC2(CN(C(=O)N3CCC(Cc4ccc(C(F)(F)F)cc4)CC3)C2)N1 | 101
